Each item that follows carries a reported zone of inhibition at 10 µg/mL.
- Tested on: Pseudomonas
- PROTOCOL: Antimicrobial activity against Pseudomonas assessed as zone of inhibition at 10 ug/ml
- Format: functional
- CONDITION_DETAILS: read-out: IZ

GIVEN_SMILES: c1ccc2c(c1)nnn2Cc1nnn[nH]1
zone of inhibition at 10 µg/mL: 11 to 16 mm

GIVEN_SMILES: CN[C@@H]1[C@H](O[C@H]2[C@H](O[C@H]3[C@H](O)[C@@H](O)[C@H](N=C(N)N)[C@@H](O)[C@@H]3N=C(N)N)O[C@@H](C)[C@]2(O)C=O)O[C@@H](CO)[C@H](O)[C@H]1O
zone of inhibition at 10 µg/mL: 21 to 22 mm

GIVEN_SMILES: CC(=O)OC[C@H]1O[C@H](n2nnnc2Cn2nnc3ccccc32)[C@H](OC(C)=O)[C@@H](OC(C)=O)[C@@H]1OC(C)=O
zone of inhibition at 10 µg/mL: 15 to 17 mm

GIVEN_SMILES: OC[C@H]1O[C@H](n2nnnc2Cn2nnc3ccccc32)[C@H](O)[C@@H](O)[C@@H]1O
zone of inhibition at 10 µg/mL: 11 to 15 mm

* * *

- System: Escherichia coli
- PROTOCOL: Antimicrobial activity against Escherichia coli
- Type: functional

MOLECULE: O=C(O)c1cn(C2CC2)c2cc(N3CCN(C(=O)CCSc4nnnn4Cc4ccccc4)CC3)c(F)cc2c1=O
MIC: 15.6 µg/mL
--
MOLECULE: Cc1ccc2cc(C3CC(c4cccs4)=NN3C(N)=S)c3nnnn3c2c1 (centres undefined)
MIC: 3.12 to 100 µg/mL
--
MOLECULE: O=C1S/C(=C\c2ccc(F)cc2)C(=O)N1Cc1ccc(-c2ccccc2-c2nnn[nH]2)cc1
MIC: 7.75 to 35.4 µg/mL
--
MOLECULE: Cc1ccc2c(c1)cc(/C=C/C(=O)c1cccs1)c1nnnn12
MIC: 6.25 to 100 µg/mL

* * *

Each item that follows carries a reported MIC.
- System: Candida albicans
- PROTOCOL: Antifungal activity against Candida albicans
- Assay type: functional

MOLECULE: Oc1ccc(-c2nnnn2-c2nc3ccccc3s2)cc1
MIC: 50 to 100 µg/mL
--
MOLECULE: Cc1ccc2cc(C3CC(c4ccccn4)=NN3C(N)=S)c3nnnn3c2c1 (configuration not stated)
MIC: 3.12 to 100 µg/mL
--
MOLECULE: Cc1ccc2cc(/C=C/C(=O)c3ccccn3)c3nnnn3c2c1
MIC: 6.25 to 100 µg/mL
--
MOLECULE: O=[N+]([O-])c1cccc(-c2nnnn2-c2nc3ccccc3s2)c1
MIC: 50 to 100 µg/mL
--
MOLECULE: Clc1ccc(COC(Cn2ccnc2)c2ccc(Cl)cc2Cl)c(Cl)c1 (configuration not stated) [MICONAZOLE]
MIC: 12.5 to 800 µg/mL
--
MOLECULE: COc1ccc(C(=O)/C=C/c2cc3ccc(C)cc3n3nnnc23)cc1
MIC: 6.25 to 100 µg/mL
--
MOLECULE: Cc1ccc2cc(C3CC(c4ccc(Cl)cc4)=NN3C(N)=S)c3nnnn3c2c1 (configuration not stated)
MIC: 3.12 to 100 µg/mL
--
MOLECULE: Cc1ccc2c(c1)cc(C1CC(c3ccc(Cl)cc3)=NN1C(N)=S)c1nnnn12 (configuration not stated)
MIC: 3.12 to 100 µg/mL
--
MOLECULE: Cc1ccc2c(c1)cc(C1CC(c3ccccn3)=NN1C(N)=S)c1nnnn12 (configuration not stated)
MIC: 3.12 to 100 µg/mL
--
MOLECULE: Cc1ccc2c(c1)cc(C1CC(c3cccs3)=NN1C(N)=S)c1nnnn12 (configuration not stated)
MIC: 3.12 to 100 µg/mL
--
MOLECULE: Oc1ccc(-c2nnnn2-c2nc3ccccc3s2)cc1O
MIC: 50 to 100 µg/mL
--
MOLECULE: Oc1cccc(-c2nnnn2-c2nc3ccccc3s2)c1
MIC: 50 to 100 µg/mL

* * *

- Test system: Escherichia coli
- PROTOCOL: Antimicrobial activity against Escherichia coli
- Type: functional
Each item that follows carries a reported MIC.

COMPOUND: N#Cc1cn2c(NC3CCCCC3)c(-c3cc4ccccc4n4nnnc34)nc2s1
MIC: > 320 µg/mL

COMPOUND: Cc1ccc2c(c1)cc(/C=C/C(=O)c1ccccc1)c1nnnn12
MIC: 6.25 to 100 µg/mL

COMPOUND: O=c1c(OCc2nnn[nH]2)c(-c2ccc(F)cc2)oc2cc(Cl)ccc12
MIC: 50 to 400 µg/mL

COMPOUND: CC1(C)S[C@@H]2[C@H](NC(=O)[C@H](N)c3ccccc3)C(=O)N2[C@H]1C(=O)O
MIC: 2 to 250 µg/mL

COMPOUND: Cc1ccc(-c2nnnn2-c2nc3ccccc3s2)cc1
MIC: 50 to 100 µg/mL

COMPOUND: O=C(O)c1cn(C2CC2)c2cc(N3CCN(C(=O)CCSc4nnnn4-c4ccc(F)c(F)c4F)CC3)c(F)cc2c1=O
MIC: 15.6 µg/mL

COMPOUND: Cc1cc2c(=O)c(OCc3nnn[nH]3)c(-c3ccc(F)cc3)oc2cc1Cl
MIC: 50 to 400 µg/mL

COMPOUND: Cc1ccc2c(=O)c(OCc3nnn[nH]3)c(-c3ccc(F)cc3)oc2c1
MIC: 50 to 400 µg/mL

COMPOUND: Cc1ccc2c(c1)cc(C1CC(c3ccccc3)=NN1C(N)=S)c1nnnn12 (centres undefined)
MIC: 3.12 to 100 µg/mL

COMPOUND: COc1ccc(Nc2c(-c3cc4ccccc4n4nnnc34)nc3sccn23)cc1
MIC: > 320 µg/mL

COMPOUND: O=C(O)c1cn(C2CC2)c2cc(N3CCN(C(=O)CCSc4nnnn4-c4ccccc4)CC3)c(F)cc2c1=O
MIC: 15.6 µg/mL

COMPOUND: N#Cc1cn2c(NCCc3ccccc3)c(-c3cc4ccccc4n4nnnc34)nc2s1
MIC: > 320 µg/mL

COMPOUND: CN(C)c1ccc(-c2nnnn2-c2nc3ccccc3s2)cc1
MIC: 50 to 100 µg/mL

COMPOUND: CCCCCC(O)C(C(CCCCCCC(=O)OCCn1c([N+](=O)[O-])cnc1C)n1nnnc1C)n1nnnc1C (centres undefined)
MIC: 26 µg/mL

* * *

Each item that follows carries a reported MIC.
- Test system: Bacillus subtilis
- PROTOCOL: Antimicrobial activity against Bacillus subtilis NCIM 2250 after 48 hrs by NCCLS protocol based method
- Format: functional
- CONDITION_DETAILS: NCIM 2250, 48 h

COMPOUND: CCOC(=O)C(C#N)C(c1cc2c(OC)cccc2n2nnnc12)P(=O)(OCC)OCC (centres undefined)
MIC: 10 to 20 µg/mL

COMPOUND: CN[C@@H]1[C@H](O[C@H]2[C@H](O[C@H]3[C@H](O)[C@@H](O)[C@H](N=C(N)N)[C@@H](O)[C@@H]3N=C(N)N)O[C@@H](C)[C@]2(O)C=O)O[C@@H](CO)[C@H](O)[C@H]1O
MIC: 10 µg/mL

COMPOUND: CCOC(=O)C(C#N)C(c1cc2ccc(CC)cc2n2nnnc12)P(=O)(OCC)OCC (centres undefined)
MIC: 10 to 20 µg/mL

COMPOUND: CCOC(=O)C(C#N)C(c1cc2cc(C)ccc2n2nnnc12)P(=O)(OCC)OCC (centres undefined)
MIC: 10 to 20 µg/mL

* * *

- Tested on: PANC-1
- PROTOCOL: Growth inhibition of human PANC1 cells
- Assay type: functional
Each item that follows carries a reported GI50.
MEASURED_PARAMETER: GI50

GIVEN_SMILES: CCn1nnnc1SCCC(=O)N1CCN(c2cc3c(cc2F)c(=O)c(C(=O)O)cn3C2CC2)CC1
MEASURED_PARAMETER: GI50
RECORDED_MEASUREMENT: ≤ 1000 nM
--
GIVEN_SMILES: O=C(O)c1cn(C2CC2)c2cc(N3CCN(C(=O)CCSc4nnnn4-c4ccc(Br)cc4)CC3)c(F)cc2c1=O
MEASURED_PARAMETER: GI50
RECORDED_MEASUREMENT: ≤ 1000 nM
--
GIVEN_SMILES: CC/C(=C(\c1ccccc1)c1ccc(OCCN(C)C)cc1)c1ccccc1
MEASURED_PARAMETER: GI50
RECORDED_MEASUREMENT: 120 to 240 nM

* * *

Each item that follows carries a reported MIC.
- Tested on: Bacillus cereus
- PROTOCOL: Antimicrobial activity against Bacillus cereus
- Assay type: functional

MOLECULE: c1ccc(-c2nnnn2-c2nc3ccccc3s2)cc1
SYSTEM_TESTED: Bacillus cereus
MIC: 50 to 100 µg/mL

MOLECULE: Oc1ccc(-c2nnnn2-c2nc3ccccc3s2)cc1O
SYSTEM_TESTED: Bacillus cereus
MIC: 50 to 100 µg/mL

MOLECULE: CC1(C)S[C@@H]2[C@H](NC(=O)[C@H](N)c3ccccc3)C(=O)N2[C@H]1C(=O)O [AMPICILLIN]
SYSTEM_TESTED: Bacillus cereus
MIC: 6.25 µg/mL

MOLECULE: N=C(N)Nc1nnn(Cc2ccccc2Cn2nnc(C(=N)N)n2)n1
SYSTEM_TESTED: Bacillus cereus
MIC: 30 to 40 µg/mL
